Data origin, for the record: patent US20030148958A1

Biological target: T1, corticotropin releasing factor 2 receptor
T1 sequence (Q13324 whole entry, species assumed, looked up): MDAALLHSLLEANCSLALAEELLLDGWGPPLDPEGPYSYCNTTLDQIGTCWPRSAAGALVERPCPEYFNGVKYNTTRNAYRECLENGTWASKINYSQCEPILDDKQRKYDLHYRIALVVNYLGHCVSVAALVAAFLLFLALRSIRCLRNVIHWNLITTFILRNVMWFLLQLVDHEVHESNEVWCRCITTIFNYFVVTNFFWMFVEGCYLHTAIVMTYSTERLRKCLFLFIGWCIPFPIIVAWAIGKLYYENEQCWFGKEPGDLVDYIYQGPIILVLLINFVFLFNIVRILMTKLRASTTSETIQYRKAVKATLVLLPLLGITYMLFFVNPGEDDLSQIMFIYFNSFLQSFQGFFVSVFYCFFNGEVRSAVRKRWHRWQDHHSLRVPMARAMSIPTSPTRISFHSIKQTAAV
Assay: cell-based or functional assay
Ends that are not written are not given here.
Use y when the recorded CRF2R EC50 is no lower than 8 nM; use n when it is lower.

Some solved entries appear below for comparison.
Is the recorded value of CRF2R EC50 equal to or greater than 8 nM for this binder? ZGPPISIDLPTDLLRKMIEIEKQEKEKQQAANNRLLLDTI (C-terminal amide) [SEQ ID NO 49]
y

Is the recorded value of CRF2R EC50 equal to or greater than 8 nM for this binder? ZGPPISIDLPIQLLRKMIEIEKQEKEKQQATTNARILARV (C-terminal amide) [SEQ ID NO 150]
y

Is the recorded value of CRF2R EC50 equal to or greater than 8 nM for this binder? ZGPPISIDLPILLLRKMIEIEKQEKEKQQAANNRLLLDTI (C-terminal amide) [SEQ ID NO 35]
y

Is the recorded value of CRF2R EC50 equal to or greater than 8 nM for this binder? ZGPPISIDLPFQLLRKMIEIEKQEKEKQQATTNARLLDRV (C-terminal amide) [SEQ ID NO 22]
y

Is the recorded value of CRF2R EC50 equal to or greater than 8 nM for this binder? ZGPPISIDLPIRLLRKMIEIEKQEKEKQQAANNRLLLDTI (C-terminal amide) [SEQ ID NO 38]
y

Next:
Is the recorded value of CRF2R EC50 equal to or greater than 8 nM for this binder? SQEPPISLDLTIHLLREVLEMTKADQLAQQAHSNRKLLDIA-NH2 [SEQ ID NO 87]
y

Is the recorded value of CRF2R EC50 equal to or greater than 8 nM for this binder? ZGPPISIDLPTYLLRKMIEIEKQEKEKQQATTNARILARV (C-terminal amide) [SEQ ID NO 151]
y

Is the recorded value of CRF2R EC50 equal to or greater than 8 nM for this binder? DNPSLSIDLPFILLRTLLELARTQSQRERAEQNAIIFASV-NH2 [SEQ ID NO 181]
n

Is the recorded value of CRF2R EC50 equal to or greater than 8 nM for this binder? ZGPPISIDLPFQLLRKMIEIEKQEKEKQQAANNRLLLDTI (C-terminal amide) [SEQ ID NO 84]
n

Is the recorded value of CRF2R EC50 equal to or greater than 8 nM for this binder? SQEPPISLDLPFQLLREVLEMTKADQLAQQAHSNRKLLDIA-NH2 [SEQ ID NO 91]
y

Is the recorded value of CRF2R EC50 equal to or greater than 8 nM for this binder? ZGPPISIDLPQQLLRKMIEIEKQEKEKQQAANNRLLLDTI (C-terminal amide) [SEQ ID NO 198]
y

Is the recorded value of CRF2R EC50 equal to or greater than 8 nM for this binder? ZGPPISIDLPFQLLRKMIEIEKQEKEKQQATTNRLLLDTI (C-terminal amide) [SEQ ID NO 13]
n
